# ASSAY TARGET: Tyrosine-protein kinase Fes/Fps (Homo sapiens)
# CONDITION SUMMARY: at 1 µM
Cut-off 80% on residual activity: below means 1.0, at or above means 0.0.

Q) Does this compound meet the criterion residual activity < 80%? O=C1Cc2c([nH]c3ccc([N+](=O)[O-])cc23)-c2ccccc2N1
A) 1.0

Q) What about this compound? Nc1ncnc2[nH]nc(Nc3ccc(F)cc3)c12
A) 0.0

Q) What about this compound? CC(C)c1nn(-c2c(Cl)cccc2Cl)c2nc(Cc3ccc(OCCO)cc3)[nH]c(=O)c12
A) 0.0

Q) What about this compound? O=C1Nc2ccccc2/C1=C\c1c(Cl)[nH]c2ccccc12
A) 0.0

Q) What about this compound? O=C(CCCc1ccc(-c2ccccc2F)cc1)Nc1ccc(O)cc1
A) 0.0

Q) What about this compound? N#C/C(=C\c1ccc(O)c(O)c1)C(=O)NCc1ccccc1
A) 0.0

Numbers sourced from ChEMBL document CHEMBL2218924.
